The entries below are paired with their reported inhibition.
EXPERIMENTAL_SYSTEM: UniProt P56817
Sequence (P56817 whole entry): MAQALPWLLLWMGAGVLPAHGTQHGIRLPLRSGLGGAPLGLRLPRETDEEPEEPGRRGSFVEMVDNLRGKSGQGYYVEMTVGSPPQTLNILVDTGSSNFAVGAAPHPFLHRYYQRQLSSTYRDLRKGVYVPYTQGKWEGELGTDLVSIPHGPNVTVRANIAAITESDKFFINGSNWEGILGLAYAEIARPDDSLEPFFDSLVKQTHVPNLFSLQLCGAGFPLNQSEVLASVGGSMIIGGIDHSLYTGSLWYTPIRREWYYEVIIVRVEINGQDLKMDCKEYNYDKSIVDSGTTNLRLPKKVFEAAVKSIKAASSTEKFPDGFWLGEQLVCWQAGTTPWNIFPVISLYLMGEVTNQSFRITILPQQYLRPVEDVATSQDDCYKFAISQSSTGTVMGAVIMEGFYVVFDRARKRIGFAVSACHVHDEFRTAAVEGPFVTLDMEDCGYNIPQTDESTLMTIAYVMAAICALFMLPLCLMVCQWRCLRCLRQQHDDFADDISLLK
ASSAY_EXPLANATION: Inhibition of BACE1 (unknown origin) at 10 uM after 90 mins by fluorescence assay
Numbered stars: 1 amine (or outer) side, 2 acyl side, 3 side chain; on linkers, the order of the positions; unused ones are H or OH. Square brackets hold non-standard residues; d marks the D form. Peptide text beside a SMILES is read from it. * marks the point of attachment. Ahppa(3S,4S) = O=C(C[C@H](O)[C@H](Cc1ccccc1)N[*:1])[*:2]; NMeQ = CN[C@@H](CCC(N)=O)C(=O)O; Cbz = O=C(OCc1ccccc1)*
Return type: number; implicit unit %.

COC(=O)[C@@H](Cc1ccccc1)N(C)C(=O)[C@H](C)NC(=O)[C@H](CC(C)C)NC(=O)C[C@H](O)[C@H](Cc1ccccc1)NC(=O)[C@H](CCC(N)=O)N(C)C(=O)OCc1ccccc1 : 49.5
COC(=O)[C@H](C)NC(=O)[C@H](CC(C)C)NC(=O)C[C@H](O)[C@H](Cc1ccccc1)NC(=O)[C@H](CCC(N)=O)N(C)C(=O)[C@@H](NC(=O)OCc1ccccc1)C(C)C (Cbz-V[NMeQ][Ahppa(3S,4S)]LA-OMe) : 90.6

Let me know recorded inhibition for CCCN(CCC)C(=O)c1cccc(C(=O)N[C@@H](Cc2ccccc2)[C@@H](O)CC(=O)N[C@@H](CC(C)C)C(=O)N[C@@H](C)C(=O)N(C)[C@H](Cc2ccccc2)C(=O)OCc2ccccc2)n1 , thanks.
28.7

Identify measured inhibition corresponding to CC(C)C[C@H](NC(=O)C[C@H](O)[C@H](Cc1ccccc1)NC(=O)OC(C)(C)C)C(=O)N[C@@H](C)C(=O)N(C)[C@H](Cc1ccccc1)C(=O)OCc1ccccc1
4.44

Identify measured inhibition associated with COC(=O)[C@H](C)NC(=O)[C@H](CC(C)C)NC(=O)C[C@H](O)[C@H](Cc1ccccc1)NC(=O)[C@H](CCC(N)=O)N(C)C(=O)OCc1ccccc1
17.5
